FYI, the data here is from PubChem BioAssay.

Target: Alpha-2C adrenergic receptor (Homo sapiens) (UniProt P18825)
Sequence (P18825 whole entry, looked up): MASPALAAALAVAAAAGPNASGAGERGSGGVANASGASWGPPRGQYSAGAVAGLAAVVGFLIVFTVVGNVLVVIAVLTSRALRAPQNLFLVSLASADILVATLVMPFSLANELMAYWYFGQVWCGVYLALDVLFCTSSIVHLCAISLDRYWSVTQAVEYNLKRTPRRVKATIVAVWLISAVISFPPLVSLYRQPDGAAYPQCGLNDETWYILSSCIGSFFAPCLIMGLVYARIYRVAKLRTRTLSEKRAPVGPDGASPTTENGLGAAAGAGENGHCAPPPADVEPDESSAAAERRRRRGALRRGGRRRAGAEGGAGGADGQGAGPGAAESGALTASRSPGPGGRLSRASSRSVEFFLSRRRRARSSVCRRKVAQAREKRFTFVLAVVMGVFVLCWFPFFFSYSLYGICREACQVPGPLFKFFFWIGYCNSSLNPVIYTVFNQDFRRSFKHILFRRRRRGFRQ
Assay: compounds altering alpha2C-coupled GIRK flux – cell-based, HEK293 alpha2C/GIRK1/2, thallium flux, primary screen (AID 624);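 also: slope of fluorescence ratio to pre-addition baseline per second over 15 to 24 s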
Settings: thallium flux BTC fluorescence, at 10 µM, actives lie on both sides
MEASURED PROPERTY: slope

COMPOUND: O=C(CN1CCN(Cc2ccccc2)CC1)NCC1COc2ccccc2O1 (stereo not drawn)
DATA VALUE: 0.00497

COMPOUND: CC(C)OC(=O)CSc1nnc(-c2ccco2)n1N
DATA VALUE: 0.00405

COMPOUND: O=C(NCC1CCCO1)c1cc(-c2ccncc2)nc2ccc(S(=O)(=O)N3CCOCC3)cc12 (stereo not drawn)
DATA VALUE: 0.00498
